system: OVCAR-5 ovarian; assay: NCI tumour cell line growth inhibition, 48 h
quantity_name: GI50

Example molecules with recorded GI50:
>>> reported_value("COc1ccc(/C=C\\c2cc(OC)c(OC)c(OC)c2)cc1OCC(=O)Nc1nc2ccccc2s1")
"31.9 µM"
>>> reported_value("Clc1ccc2nc(Cl)c3ccccc3c2c1")
"22.1 µM"
>>> reported_value("CCCCCCCCNC(C)C(O)c1ccc(SC(C)C)cc1 (configuration not stated)")
"1.76 µM"
>>> reported_value("COc1ccc(-n2cc(-c3cc(OC)c(OC)c(OC)c3)[nH]c2=S)cc1Cl")
"28.3 µM"
>>> reported_value("O=C(CCN1CCCC1)Nc1ccc2c(NCCc3ccccc3)c3ccccc3nc2c1")
"0.506 µM"

# GI50 lookup, item O=C(Nc1ccc(Oc2ccc(NC(=O)Nc3ccc([N+](=O)[O-])cc3)cc2)cc1)Nc1ccc([N+](=O)[O-])cc1
3.59 µM

# GI50 lookup, item COc1cc(/C(=C2/O[C@@H]([C@H]3COC(C)(C)O3)[C@H]3OC(C)(C)O[C@@H]23)c2ccc3c(c2)OCO3)cc(OC)c1OC
4.85 µM

###

system: EKVX NSCLC; test: NCI tumour cell line growth inhibition, 48 h; in the data active means GI50 below about 0.43 µM; inactive means the rest
Please reply with one of these outcomes: Yes = active, No = inactive

Use these answered entries as a reference point.
>>> answer_label("COc1ccc2c(c1)C(=O)c1c-2c(N2CCN(C(=O)CNCCN(C)C)CC2)nc2ccccc12")
"No"
>>> answer_label("COc1ccc2c(c1)[nH]c(=O)c1c3cc(OC)c(OC)cc3cn21")
"Yes"
>>> answer_label("CNC(=O)c1cc(Oc2ccc3nc(N[C@@H]4CCCC[C@H]4O)sc3c2)ccn1")
"No"
>>> answer_label("Cc1ccc(-c2cc(-c3ccc(C)cc3)nc(N3CCN(CCNc4ccnc5cc(Cl)ccc45)CC3)n2)cc1")
"No"
>>> answer_label("O=C(c1ccco1)c1nc2cc(C(F)(F)F)ccc2[n+]([O-])c1C(F)(F)F")
"No"

How was COc1cc(-c2nc(-c3ccc(-c4nc5ccc(F)cc5[nH]4)cc3)no2)cc(OC)c1OC classified in this test?
No

How was Fc1cccc(Cl)c1Cn1c(-c2c(F)cccc2Cl)nc2ccccc21 classified in this test?
No

###

Parameter TGI: see the listing below.
system: OVCAR-4 ovarian; experiment: NCI tumour cell line growth inhibition, 48 h
Write the answer as a number in µM, unit excluded.

Example molecules with recorded TGI:
>>> reported_value("CN(C)CC1CCCc2ccccc2C1=O (stereo not given)")
2.01
>>> reported_value("CC(=O)c1ccc2c3c1O[C@H]1c4[nH]c5ccccc5c4C[C@@]4(O)[C@@H](C2)N(CC2CC2)CC[C@]314")
39.9
>>> reported_value("COc1cc(-c2nc(-c3ccc(-c4nc5ccc(F)cc5[nH]4)cc3)no2)cc(OC)c1OC")
11.3
>>> reported_value("Cc1ccc(-c2cc(-c3ccc(C)cc3)nc(N3CCN(CCNc4ccnc5cc(Cl)ccc45)CC3)n2)cc1")
1.9

Okay, next one:
GET /values?readout=TGI&system=OVCAR-4 ovarian&item= CCCCCCCCCCCCCCCC(=O)OCC1OC(OC)C(NC(=O)N(CCCl)N=O)C(O)C1O (stereo not given)
53.4

###

Parameter GI50: see the listing below.
test system: HOP-92 NSCLC; assay: NCI tumour cell line growth inhibition, 48 h

# GI50 lookup, item CCCCCCCCNC(C)C(O)c1ccc(SC(C)C)cc1 (stereo not given)
1170 nM

# GI50 lookup, item Oc1ccc(Oc2cnc3cc(Cl)ccc3n2)cc1
37300 nM

# GI50 lookup, item COc1ccc2c(c1)C(=O)c1c-2c(N2CCN(C(=O)CNCCN(C)C)CC2)nc2ccccc12
1570 nM

# GI50 lookup, item CN(C)c1ccc(Nc2c3ccccc3nc3cc(NC(=O)CCN4CCCC4)ccc23)cc1
379 nM

###

test system: T-47D breast; assay: NCI tumour cell line growth inhibition, 48 h
Would you mind labelling by TGI? At or over 20 µM is TRUE, under is FALSE.

>>> answer_label("COc1cc(-c2nc(-c3ccc(-c4nc5ccc(F)cc5[nH]4)cc3)no2)cc(OC)c1OC")
"FALSE"
>>> answer_label("Cc1ccc(-c2cc(-c3ccc(C)cc3)nc(N3CCN(CCNc4ccnc5cc(Cl)ccc45)CC3)n2)cc1")
"FALSE"
>>> answer_label("COc1cc(-c2nc3cc(Cl)c(Cl)cc3[nH]2)ccc1OCC(=O)N=Nc1c(O)[nH]c2ccc(Cl)cc12")
"FALSE"
>>> answer_label("CCOC(=O)Cn1c(-c2nonc2NC(=O)c2ccccc2F)nc2ccccc21")
"TRUE"
>>> answer_label("COc1ccc(Cn2c3ccc([N+](=O)[O-])cc3c(=O)n2Cc2ccccn2)cc1")
"TRUE"
>>> answer_label("CC[C@H]1CN(C)[C@H]2Cc3c([nH]c4ccccc34)C(=O)C[C@H]1C2C(=O)OC (stereo partly drawn)")
"TRUE"

Could you verify whether the entry CCCCOc1ccc2c(c1)CC[C@@H]1[C@@H]2CC[C@]2(C)C(=O)N(CCCC)C(=O)C[C@@H]12 shows TGI of no less than 20 µM?
TRUE

Could you verify whether the entry Fc1cccc(Cl)c1Cn1c(-c2c(F)cccc2Cl)nc2ccccc21 shows TGI of no less than 20 µM?
TRUE

Could you verify whether the entry CC(=O)c1ccc2c3c1O[C@H]1c4[nH]c5ccccc5c4C[C@@]4(O)[C@@H](C2)N(CC2CC2)CC[C@]314 shows TGI of no less than 20 µM?
TRUE

Could you verify whether the entry Nc1nc(-c2ccc(Cl)cc2)cc(-c2ccc(Cl)cc2)c1-c1nc2ccccc2o1 shows TGI of no less than 20 µM?
TRUE

Could you verify whether the entry CC(=O)Nc1ccc(-c2csc(Nc3cccc(-c4csc(-c5ccccc5)n4)c3)n2)cc1 shows TGI of no less than 20 µM?
TRUE

###

Parameter TGI: see the listing below.
tested on: A498 renal; assay: NCI tumour cell line growth inhibition, 48 h

GET /values?readout=TGI&system=A498 renal&item= O=C(c1ccco1)c1nc2cc(C(F)(F)F)ccc2[n+]([O-])c1C(F)(F)F
> 100 µM

GET /values?readout=TGI&system=A498 renal&item= COC12C=CC(CC1)C(C)(C)C2OS(C)(=O)=O (stereo not given)
> 100 µM

GET /values?readout=TGI&system=A498 renal&item= O=C(NNS(=O)(=O)c1ccccc1)c1csc(NC(=S)NC2CCCCC2)n1
> 100 µM

GET /values?readout=TGI&system=A498 renal&item= CN(C)c1ccc(Nc2c3ccccc3nc3cc(NC(=O)CCN4CCCC4)ccc23)cc1
1.98 µM

GET /values?readout=TGI&system=A498 renal&item= COc1ccc(N2N=NN(C(C)C)/C2=C(/Cl)c2nnnn2-c2ccc(OC)cc2)cc1
30.5 µM

GET /values?readout=TGI&system=A498 renal&item= CCOC(=O)C(NC(=O)CC)(Nc1ccc(S(=O)(=O)Nc2ccc(OC)nn2)cc1)C(F)(F)F (stereo not given)
> 100 µM

GET /values?readout=TGI&system=A498 renal&item= NC(=O)c1sc(-n2cnc3ccc(C(F)(F)F)cc32)cc1OCc1ccccc1Br
16.2 µM

###

tested on: HOP-62 NSCLC; test: NCI tumour cell line growth inhibition, 48 h; in the data active = GI50 below about 0.43 µM; inactive = the rest
Please reply with one of these outcomes: active, inactive

Use these answered entries as a reference point.
>>> answer_label("COc1cc(OC)c(F)c(COc2cnc(Nc3cnn(CCO)c3)nc2)c1F")
"active"
>>> answer_label("O=c1c2c(=NCCN3CCCC3)cc3c(=O)n(CCCN4CCOCC4)c(=O)c4ccc(c(O)n1CCCN1CCOCC1)c2c4-3")
"active"
>>> answer_label("NC(=O)c1sc(-n2cnc3ccc(C(F)(F)F)cc32)cc1OCc1ccccc1Br")
"inactive"
>>> answer_label("CCCCCCCCCCCC1=NC(C)(C)CN1CC(C)O (centres undefined)")
"inactive"
>>> answer_label("O=C(c1nn(-c2ccc(Cl)cc2)cc1O)n1nc(C(F)(F)F)cc1-c1ccccc1")
"inactive"
>>> answer_label("CCCCCCCCCCC[C@@H](C[C@H]1OC(=O)[C@H]1CCCCCC)OC(=O)[C@@H](CC(C)C)NC=O")
"inactive"
>>> answer_label("CNC(=O)c1cc(Oc2ccc3nc(N[C@@H]4CCCC[C@H]4O)sc3c2)ccn1")
"inactive"
>>> answer_label("O=C(NO)c1ccc(Cn2c(=O)n(-c3ccccc3)c(=O)c3ccccc32)cc1")
"inactive"

Please find the next compound below.
How was C[C@@H](Oc1cc(-n2cnc3ccc(OCC4CCN(C)CC4)cc32)sc1C(N)=O)c1ccccc1Cl classified in this test?
active

###

test system: UACC-62 melanoma; assay: NCI tumour cell line growth inhibition, 48 h
quantity_name: TGI

>>> reported_value("O=S1c2ccccc2NC(c2ccc3ccccc3c2)CC1c1ccccc1 (centres undefined)")
"> 100 µM"
>>> reported_value("COC1=CC(=O)c2nc3ccccc3c3ccnc1c23")
"2.95 µM"
>>> reported_value("COc1cc(-c2nc3cc(Cl)c(Cl)cc3[nH]2)ccc1OCC(=O)N=Nc1c(O)[nH]c2ccc(Cl)cc12")
"2.54 µM"

# TGI lookup, item Cc1ccc(N=C2SC(=NN(C)C)SC2=Nc2ccc(C)cc2)cc1
> 100 µM

# TGI lookup, item COc1ccc(C2C(C#N)=C(S)N(C3OC(CO)C(O)C(O)C3O)C(C)=C2C(C)=O)cc1 (centres undefined)
> 100 µM

# TGI lookup, item COc1cc(C2c3cc(OC)c(OC)c(O)c3C(=O)C3CCC(=O)N32)cc(OC)c1OC (centres undefined)
> 100 µM

# TGI lookup, item C[C@]12CC[C@H](O)CC1=CC[C@@H]1[C@@H]2CC[C@]2(C)C(=O)/C(=C/c3ccc([N+](=O)[O-])cc3)C[C@@H]12
> 100 µM

# TGI lookup, item CCOC(=O)C1=C(c2ccccc2)C12N(Cc1ccccc1)C(=O)C2(c1ccccc1)c1ccccc1 (centres undefined)
> 100 µM

# TGI lookup, item CC(O)C(NC(=O)c1ccccc1)C(=O)N(Cc1ccccc1)Cc1ccccc1 (centres undefined)
> 100 µM
